- Protocol description: Isolated perfused rat kidney
- Format: in vitro ADME, Sprague-Dawley rats
- Conditions: Kidney B; 70–80 min period; perfused with 50 µM AA-I

>  <Compound>
COc1cccc2c1cc([N+](=O)[O-])c1c(C(=O)O)cc3c(c12)OCO3

>  <Result units>
nM

>  <Concentration in perfusate>
23800

$$$$
>  <Compound>
COc1cccc2c1cc1c3c(cc4c(c32)OCO4)C(=O)N1

>  <Result units>
nM

>  <Concentration in perfusate>
18

$$$$
>  <Compound>
O=C1Nc2cc3c(OC4OC(C(=O)O)C(O)C(O)C4O)cccc3c3c4c(cc1c23)OCO4 (stereo not shown)

>  <Result units>
nM

>  <Concentration in perfusate>
14

$$$$
>  <Compound>
O=C(O)c1cc2c(c3c1c([N+](=O)[O-])cc1c(O)cccc13)OCO2

>  <Result units>
nM

>  <Concentration in perfusate>
420

$$$$

* * *

- Protocol description: Isolated perfused rat kidney
- Format: in vitro ADME, Sprague-Dawley rats
- Conditions: male, Sprague-Dawley, rat, CLR (renal clearance), Kidney B; 50 µM dose; cumulative urinary excretion / AUC 0–80 min post-dose
Endpoint: CL renal at 50 µM (mL/min)

>  <Molecule>
COc1cccc2c1cc([N+](=O)[O-])c1c(C(=O)O)cc3c(c12)OCO3 [AA-I]

>  <Result units>
mL/min

>  <Recorded result>
0.003

$$$$

* * *

- Protocol description: Isolated perfused rat kidney
- Format: in vitro ADME, Sprague-Dawley rats
- Conditions: Kidney A; 70–80 min period; perfused with 50 µM AA-I
Endpoint: log10(Concentration in urine) (log10 of the value in nM)

>  <Compound>
O=C1Nc2cc3c(OC4OC(C(=O)O)C(O)C(O)C4O)cccc3c3c4c(cc1c23)OCO4 (centres unmarked)

>  <Recorded result>
1.49

$$$$
>  <Compound>
COc1cccc2c1cc1c3c(cc4c(c32)OCO4)C(=O)N1

>  <Recorded result>
1.72

$$$$
>  <Compound>
O=C(O)c1cc2c(c3c1c([N+](=O)[O-])cc1c(OS(=O)(=O)O)cccc13)OCO2

>  <Recorded result>
2.56

$$$$
>  <Compound>
O=C(O)c1cc2c(c3c1c([N+](=O)[O-])cc1c(O)cccc13)OCO2

>  <Recorded result>
2.83

$$$$
>  <Compound>
COc1cccc2c1cc([N+](=O)[O-])c1c(C(=O)O)cc3c(c12)OCO3

>  <Recorded result>
2.68

$$$$

* * *

- Protocol description: Isolated perfused rat kidney
- Type: in vitro ADME, Sprague-Dawley rats
- Conditions: Kidney B; 40–50, 50–60, 60–70 and 70–80 min periods; S.D. in parenthesis
// reported Average amount in urine per 10-min period per item
Endpoint: Average amount in urine per 10-min period

>  <Molecule>
O=C(O)c1cc2c(c3c1c([N+](=O)[O-])cc1c(OS(=O)(=O)O)cccc13)OCO2

>  <Recorded result>
0.96 (0.28) nanomoles

$$$$
>  <Molecule>
O=C1Nc2cc3c(OC4OC(C(=O)O)C(O)C(O)C4O)cccc3c3c4c(cc1c23)OCO4 (centres unmarked)

>  <Recorded result>
0.012 (0.009) nanomoles

$$$$
>  <Molecule>
COc1cccc2c1cc([N+](=O)[O-])c1c(C(=O)O)cc3c(c12)OCO3

>  <Recorded result>
1.24 (0.32) nanomoles

$$$$
>  <Molecule>
COc1cccc2c1cc1c3c(cc4c(c32)OCO4)C(=O)N1

>  <Recorded result>
0.034 (0.015) nanomoles

$$$$
>  <Molecule>
O=C(O)c1cc2c(c3c1c([N+](=O)[O-])cc1c(O)cccc13)OCO2

>  <Recorded result>
6.7 (2.6) nanomoles

$$$$

* * *

- Target system: UniProtKB P02769
- Sequence (P02769 25-607): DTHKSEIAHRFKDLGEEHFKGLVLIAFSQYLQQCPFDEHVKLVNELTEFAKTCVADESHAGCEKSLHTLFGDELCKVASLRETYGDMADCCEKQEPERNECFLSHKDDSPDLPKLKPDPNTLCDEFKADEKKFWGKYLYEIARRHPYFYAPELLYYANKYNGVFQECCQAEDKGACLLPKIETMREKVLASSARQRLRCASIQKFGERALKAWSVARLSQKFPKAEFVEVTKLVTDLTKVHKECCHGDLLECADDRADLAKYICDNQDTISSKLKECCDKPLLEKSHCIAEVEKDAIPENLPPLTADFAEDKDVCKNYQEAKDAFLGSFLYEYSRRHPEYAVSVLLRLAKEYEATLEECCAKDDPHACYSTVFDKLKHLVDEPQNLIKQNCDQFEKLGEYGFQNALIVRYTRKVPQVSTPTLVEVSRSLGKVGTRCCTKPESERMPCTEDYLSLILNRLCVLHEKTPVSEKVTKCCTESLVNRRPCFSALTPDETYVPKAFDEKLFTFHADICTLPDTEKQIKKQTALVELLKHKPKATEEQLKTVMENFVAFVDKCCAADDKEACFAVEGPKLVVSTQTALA
- Protocol description: Perfusate binding by ultrafiltration
- Format: in vitro ADME

>  <Structure notation>
COc1cccc2c1cc([N+](=O)[O-])c1c(C(=O)O)cc3c(c12)OCO3

>  <fraction unbound>
0.0225

$$$$
>  <Structure notation>
COc1cccc2c1cc1c3c(cc4c(c32)OCO4)C(=O)N1

>  <fraction unbound>
0.0235

$$$$

* * *

# maps each entry to its Amount in the 24 hr urine sample
- Type: in vivo, male Wistar rats
- Conditions: 2 mg AA-I subcutaneously, Wistar rats
Endpoint: Amount in the 24 hr urine sample

>  <Compound>
O=C1Nc2cc3c(OS(=O)(=O)O)cccc3c3c4c(cc1c23)OCO4 [L-Ia-O-S]

>  <Recorded result>
0.09 % of the dose

$$$$
>  <Compound>
O=C1Nc2cc3c(OC4OC(C(=O)O)C(O)C(O)C4O)cccc3c3c4c(cc1c23)OCO4 [L-Ia-O-G]

>  <Recorded result>
0.09 % of the dose

$$$$
>  <Compound>
O=C(O)c1cc2c(c3c1c([N+](=O)[O-])cc1c(O)cccc13)OCO2 [AA-Ia, aristolochic acid Ia]

>  <Recorded result>
14.3 % of the dose

$$$$
>  <Compound>
COc1cccc2c1cc1c3c(cc4c(c32)OCO4)C(=O)N1 [L-I, aristolactam I]

>  <Recorded result>
0.01 % of the dose

$$$$

* * *

Recorded Average concentration in 24-hour collected urine values for a group of molecules are listed next.
- Assay type: in vivo, male Wistar rats
- Conditions: 2 mg AA-I subcutaneously; five rats; standard deviation in parentheses
Endpoint: Average concentration in 24-hour collected urine

>  <Molecule>
COc1cccc2c1cc1c3c(cc4c(c32)OCO4)C(=O)N1

>  <Recorded result>
5.4 (3.8) µg/Lt

$$$$
>  <Molecule>
O=C1Nc2cc3c(OC4OC(C(=O)O)C(O)C(O)C4O)cccc3c3c4c(cc1c23)OCO4 (centres unmarked)

>  <Recorded result>
66 (54) µg/Lt

$$$$
>  <Molecule>
O=C1Nc2cc3c(OS(=O)(=O)O)cccc3c3c4c(cc1c23)OCO4

>  <Recorded result>
53 (24) µg/Lt

$$$$
>  <Molecule>
COc1cccc2c1cc([N+](=O)[O-])c1c(C(=O)O)cc3c(c12)OCO3

>  <Recorded result>
68 (17) µg/Lt

$$$$
>  <Molecule>
O=C(O)c1cc2c(c3c1c([N+](=O)[O-])cc1c(O)cccc13)OCO2

>  <Recorded result>
7900 (1300) µg/Lt

$$$$
